Reported koff values for a set of binders
- SUBJECT OF TEST: T1, human IL-6 (human, UniProt P05231 30-212)
- T1 construct: IL-6 flowed over captured antibodies
- EXPERIMENT: SPR Biacore, supernatant Ab on Protein A chip, 37 C
- Experimental: Antibodies were captured on a Protein A chip (GE) by injecting 1:20 cell supernatant dilutions at 10 μL/min for 60 seconds. […] The sensor chip was regenerated by a 60 seconds injection of 10 mM Glycine pH 1.7 at the flow rate of 50 μL/min. […] For this setup, 1 μg/mL of purified antibody was injected over a Protein A chip at 10 μL/min for 25 seconds. […] The sensor chip was regenerated by a 60 seconds injection of 10 mM Glycine pH 1.7 at flow rate of 50 μL/min. […]
The reply should contain only the number, in s⁻¹.

Before answering, review these 4 worked examples.
anti-IL-6 antibody, heavy chain T63S, G66D / light chain M32L, M50D, N52S, M88Q (antibody, IgG1, V domains shown, Full IgG1 (Expi293); VL = variant III) VH: EVQLVESGGGLVQPGGSLRLSCAASGFTFSPFAMSWVRQAPGKGLEWVAKISPGGSWTYYSDSVTDRFTFSLDTSKSTAYLQMNSLRAEDTAVYYCARQLWGYYALDIWGQGTLVTVSS VL: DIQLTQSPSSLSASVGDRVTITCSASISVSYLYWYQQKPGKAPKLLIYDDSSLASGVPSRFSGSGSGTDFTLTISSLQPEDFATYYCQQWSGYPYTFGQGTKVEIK | 0.000499
anti-IL-6 antibody, heavy chain I51R, G66D / light chain M32L, M50D, N52S, M88Q (antibody, IgG1, V domains shown, Full IgG1 (Expi293); VL = variant III) VH: EVQLVESGGGLVQPGGSLRLSCAASGFTFSPFAMSWVRQAPGKGLEWVAKRSPGGSWTYYSDTVTDRFTFSLDTSKSTAYLQMNSLRAEDTAVYYCARQLWGYYALDIWGQGTLVTVSS VL: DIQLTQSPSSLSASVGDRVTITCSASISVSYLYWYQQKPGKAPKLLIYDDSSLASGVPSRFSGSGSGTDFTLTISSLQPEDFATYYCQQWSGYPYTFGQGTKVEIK | 5.8e-05
anti-IL-6 antibody, heavy chain S35D, G66D / light chain M32L, M50D, N52S, M88Q (antibody, IgG1, V domains shown, Full IgG1 (Expi293); VL = variant III) VH: EVQLVESGGGLVQPGGSLRLSCAASGFTFSPFAMDWVRQAPGKGLEWVAKISPGGSWTYYSDTVTDRFTFSLDTSKSTAYLQMNSLRAEDTAVYYCARQLWGYYALDIWGQGTLVTVSS VL: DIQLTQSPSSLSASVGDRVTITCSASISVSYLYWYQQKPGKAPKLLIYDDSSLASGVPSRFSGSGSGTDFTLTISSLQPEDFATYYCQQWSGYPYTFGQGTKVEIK | 0.00177
anti-IL-6 antibody, heavy chain T65A, G66D / light chain M32L, M50D, N52S, M88Q (antibody, IgG1, V domains shown, Full IgG1 (Expi293); VL = variant III) VH: EVQLVESGGGLVQPGGSLRLSCAASGFTFSPFAMSWVRQAPGKGLEWVAKISPGGSWTYYSDTVADRFTFSLDTSKSTAYLQMNSLRAEDTAVYYCARQLWGYYALDIWGQGTLVTVSS VL: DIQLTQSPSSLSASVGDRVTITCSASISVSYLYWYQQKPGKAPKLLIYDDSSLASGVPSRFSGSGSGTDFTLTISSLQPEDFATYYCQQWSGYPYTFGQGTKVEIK | 0.000542

Next binder, please.
Returns the measured koff for the input binder. Input: anti-IL-6 antibody, heavy chain T65L, G66D / light chain M32L, M50D, N52S, M88Q (antibody, IgG1, V domains shown, Full IgG1 (Expi293); VL = variant III) VH: EVQLVESGGGLVQPGGSLRLSCAASGFTFSPFAMSWVRQAPGKGLEWVAKISPGGSWTYYSDTVLDRFTFSLDTSKSTAYLQMNSLRAEDTAVYYCARQLWGYYALDIWGQGTLVTVSS VL: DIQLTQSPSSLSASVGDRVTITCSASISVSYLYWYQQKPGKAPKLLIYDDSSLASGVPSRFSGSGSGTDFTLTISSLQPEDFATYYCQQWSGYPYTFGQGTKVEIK 0.000446
